Data origin, for the record: patent US9562053B2

- measured target: Human GPR120 short form (Homo sapiens)
- Construct: expressed in transfected cells
- assay info: Human GPR120 in Calcium Flux Assay, Procedure Calcium A (2500 cells/well)
- Assay type: cell-based
Decision: EC50 beneath 200 nM gives Yes; EC50 meeting or exceeding 200 nM gives No.

Field: example entries. Status: answers known.
* Cc1cc2c(COc3ccc(CCC(=O)O)c(C)c3C)cc(Cl)cc2o1 | Yes
* Cc1nc2c(COc3ccc(CCC(=O)O)c(C)c3C)cc(Cl)cc2o1 | Yes
* CCc1cc2cc(Cl)cc(COc3ccc(CCC(=O)O)c4c3CCC4)c2o1 | Yes
* CCc1cc2cc(F)cc(COc3ccc(CCC(=O)O)c(C)c3C)c2o1 | Yes
* CCCc1cc2cc(Cl)cc(COc3ccc(CCC(=O)O)c(C)c3C)c2o1 | Yes

Could you please tell me whether EC50 recorded for Cc1c(CCC(=O)O)ccc(OCc2cc(Cl)cc3cc(C=CF)oc23)c1C (mixture of isomers) is less than 200 nM?
Yes

Quick one: Cc1c(CCC(=O)O)ccc(OCc2cc(Cl)cc3cc(CC(F)F)oc23)c1C
Yes

Entry Cc1cc2cc3c(c(COc4ccc(CCC(=O)O)c(C)c4C)c2o1)OCO3 please
Yes

* * *

- measured target: Human GPR120 short form (Homo sapiens)
- Construct: expressed in transfected cells
- assay info: Human GPR120 in Calcium Flux Assay, Procedure Calcium A (2500 cells/well)
- Type: cell-based
pEC50: −log10 of the molar value.
The threshold is inclusive: pEC50 of exactly 7 counts as 1.0; values below receive 0.0.

• CCc1cc2cc(F)cc(COc3cc(C)c(CCC(=O)O)cn3)c2o1 [Compound 33] = 0.0
• Cc1c(CCC(=O)O)ccc(OCc2cc(OC(F)(F)F)cc3cc(C=CF)oc23)c1C (mixture of isomers) [Compound 97] = 1.0
• CC#Cc1cc(COc2ccc(CCC(=O)O)c(C)c2C)c2oc(C)cc2c1 [Compound 83] = 1.0
• Cc1c(CCC(=O)O)ccc(OCc2cc(F)cc3cc(CCO)oc23)c1C [Compound 15] = 0.0

Determine whether this compound has pEC50 no lower than 7: CCc1cc2cc(F)cc(COc3c(F)cc(CCC(=O)O)cc3F)c2o1 [Compound 17]
0.0

# iterate: COCCc1cc2cc(F)cc(COc3ccc(CCC(=O)O)c(C)c3C)c2o1 [Compound 10]
0.0

Please do the same for Cc1c(CCC(=O)O)ccc(OCc2cc(F)cc3cc(C4CCCC4)oc23)c1C [Compound 18] as well.
0.0

What do you have for CCc1cc2cc(OC(F)(F)F)cc(COc3ccc(CCC(=O)O)c4c3CCC4)c2o1 [Compound 52] ?
1.0

Further, for CCc1cc2cc(C#N)cc(COc3ccc(CCC(=O)O)c(C)c3C)c2o1 [Compound 123] ?
0.0

* * *

- measured target: long form of human GPR120 (Homo sapiens)
- Sequence (Q5NUL3 1-377 isoform Q5NUL3-1): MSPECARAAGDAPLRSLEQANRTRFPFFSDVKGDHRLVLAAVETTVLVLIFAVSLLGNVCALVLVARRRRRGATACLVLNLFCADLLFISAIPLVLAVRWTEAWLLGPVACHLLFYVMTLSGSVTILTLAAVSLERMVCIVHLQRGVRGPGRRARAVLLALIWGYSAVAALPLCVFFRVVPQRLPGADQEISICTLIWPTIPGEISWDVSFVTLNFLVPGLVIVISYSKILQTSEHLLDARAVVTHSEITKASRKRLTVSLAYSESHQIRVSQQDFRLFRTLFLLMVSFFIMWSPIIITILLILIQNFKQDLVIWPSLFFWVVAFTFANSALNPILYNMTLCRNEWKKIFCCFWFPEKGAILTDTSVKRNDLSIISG
- assay info: Human GPR120 DiscoveRx PathHunter Beta-Arrestin Assay, Procedure β-arrestin A (3000 cells per well)
- cond: read-out: GPR120 B-arrestin A EC50
Listing of recorded EC50 by entry.
Give the value in nM but do not write nM after it.

- CCc1cc2ccc(OC(F)F)c(COc3ccc(CCC(=O)O)c(C)c3C)c2o1: 2500

Form field - read-out: EC50; system: long form of human GPR120 (Homo sapiens); submitted item: Cc1nc2cc(Cl)cc(COc3ccc(CCC(=O)O)c(C)c3C)c2o1
434

And Cc1c(CCC(=O)O)ccc(OCc2cc(F)cc3cc(CC(C)C)oc23)c1C ?
470

Please do the same for Cc1c(CCC(=O)O)ccc(OCc2cc(Cl)cc3cnn(C)c23)c1C as well.
108

Now this one: Cc1cc2cc(Cl)cc(COc3c(F)cc(CCCO)cc3F)c2s1
536

// repeat for CCc1cc2cc(Cl)cc(COc3ccc(CCC(=O)O)c4c3CCC4)c2o1 and report
429

Now try CC#Cc1cc(COc2ccc(CCC(=O)O)c(C)c2C)c2oc(C)cc2c1 .
440

Here is the next compound: Cc1oc2cccc(COc3ccc(CCC(=O)O)c(C)c3C)c2c1C
706

Also need CCCc1cc2cc(Cl)cc(COc3ccc(CCC(=O)O)c(F)c3F)c2o1 , thanks.
146
